# Tested on: PRKCH
# EXPERIMENTAL CONTEXT: concentration: 1 μM,replicates: in singlicate; n = 1;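 further: KINOMEscan kinase panel screen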
OUTCOME MEASURE: %Inh (%)
Answers are plain numbers, in %.

Illustrative cases are given below, each with its answer.
1. Cn1ccc2ncnc(Oc3ccc(NC(=O)Nc4cc(C(C)(C)C)on4)c(Cl)c3)c21 : 0
2. CC(=O)Nc1ccc(-c2cc3ncnc(SCC(=O)O)c3s2)cc1 : 1
3. C[C@@H]1CCN(C(=O)N2CCCC2)C[C@@H]1N(C)c1ncnc2[nH]ccc12 : 13
4. Cl.c1ccc(Oc2ccc(Nc3ccnc4cc(-c5ccc(CN6CCNCC6)o5)ccc34)cc2)nc1 : 0
5. COc1cc2c(Nc3ccc(NC(=O)c4ccccc4)cc3)ncnc2cc1OCCCN1CCOCC1 : 0
6. Cn1ccc2ncnc(Oc3ccc(NC(=O)Nc4ccnc(C(F)(F)F)c4)c(Cl)c3)c21 : 0

Required: %Inh, one value per molecule below.
1. Cn1cc(-c2cccc3c(N)c(C(N)=O)nnc23)cn1
2. CN1CCN(CCCNc2nccc(-c3c(-c4ccc(F)cc4)nn4cc(C(N)=O)ccc34)n2)CC1
3. CN1CCN(CCNc2nc3cc(Oc4ccc(NC(=O)Nc5cc(C(F)(F)F)ccc5F)cc4)ccc3[nH]2)CC1.Cl.Cl
4. O=C(Nc1cccc(C(F)(F)F)c1)c1cccc(Oc2ccc3nccn3n2)c1
5. FC(F)(F)c1cc(Br)cc(Nc2nccc(-c3cnn4ncccc34)n2)c1
6. CC(C)S(=O)(=O)N1CCN(Cc2ccc3c(c2)nc(NC(=O)c2ccsc2)n3C[C@H](O)c2ccccc2)CC1

Solution:
1: 36; 2: 22; 3: 0; 4: 0; 5: 7; 6: 13

Required: %Inh, one value per molecule below.
1. CN(c1cccc(CNc2nc(Nc3ccc4c(c3)CC(=O)N4)ncc2C(F)(F)F)c1)S(C)(=O)=O
2. CC(C(=O)NC1CCN(c2ccnc(Nc3ccc(F)cc3)n2)C1)c1ccc(Cl)cc1 (centres unmarked)
3. Cc1cccc(-c2nc(Nc3ccncc3)c3sccc3n2)n1
4. C[C@@H]1CNc2c(sc3ccc4nc(-c5ccc(O)cc5)ccc4c23)C(=O)N1
5. COc1cccc(CNC(=O)NC2CCN(c3ccnc(Nc4cc(OC)c(OC)c(OC)c4)n3)C2)c1 (centres unmarked)

Solution:
1: 0; 2: 8; 3: 21; 4: 35; 5: 12

----------
# System: STK33
# EXPERIMENTAL CONTEXT: concentration: 1 μM,replicates: in singlicate; n = 1
Would you kindly list %Inh for each of these compounds?
One number for each entry, in %.

Illustrative cases are given below, each with its answer.
1) Cl.c1ccc(Oc2ccc(Nc3ccnc4cc(-c5ccc(CN6CCNCC6)o5)ccc34)cc2)nc1 [GW567142] : 24
2) COc1cc2c(Nc3ccc(NC(=O)c4ccccc4)cc3)ncnc2cc1OCCCN1CCOCC1 [GSK301329] : 41
3) Cc1nnc(-c2ccc3occ(-c4ccc(S(C)=O)cc4)c3n2)o1 (stereo not drawn) : 0

Required: %Inh, one value per compound below.
1. Cc1cccc2c(-c3ccncc3)c(-c3ccc(F)cc3)nn12.Cl [GW461487]
2. COc1cc2ncn(-c3cc(OCC4CCCCC4)c(C(N)=O)s3)c2cc1OC [GSK204559]
3. CCNCC(Cc1ccccc1)NC(=O)c1cc(Br)c(-c2ccnc3[nH]ccc23)s1.Cl.Cl (stereo not drawn) [GSK1383280]

Solution:
1. 0
2. 12
3. 95.9

Required: %Inh, one value per compound below.
1. O=C(Nc1ccc(Oc2ccc3nc(NC(=O)C4CC4)cn3n2)c(F)c1)c1cccn(-c2ccccc2)c1=O
2. COc1cc(Nc2nccc(N3CCC(NC(=O)c4cccc(C#N)c4)C3)n2)cc(OC)c1OC (stereo not drawn) [GSK1379751]
3. CC(=O)Nc1nc2cnc(Nc3cc(NC(=O)c4cccc(CC(C)(C)C#N)c4)ccc3C)nc2s1
4. Cc1ccc(C(=O)Nc2ccc(Oc3ccc4nc(NC(=O)C5CC5)cn4c3)c(F)c2)c(=O)n1-c1ccccc1
5. COC(=O)c1cccc(NC(=O)NC2CCN(c3ccnc(NCc4ccc(F)cc4)n3)CC2)c1 [GSK1379860]
6. CC(C)S(=O)(=O)N1CCN(Cc2ccc3c(c2)nc(NC(=O)c2ccsc2)n3C[C@H](O)c2ccccc2)CC1 [GW635815]
7. Cc1n[nH]c2cc(Nc3ccnc(Nc4cccc(CN5CCOCC5)c4)n3)ccc12 [GW682569]
8. C[C@@H]1CNc2c(sc3ccc4nc(-c5ccncc5)ccc4c23)C(=O)N1

Solution:
1. 23
2. 0
3. 0
4. 24
5. 0
6. 60
7. 0
8. 60

Required: %Inh, one value per compound below.
1. CCCC(=O)Nc1n[nH]c2ncccc12 [SB-601436]
2. O=c1[nH]cc(-c2ccc(O)cc2)c2sc(-c3ccncc3)cc12 [GSK1033723]
3. COc1cccc(C2=C(Nc3cccc(Cl)c3)C(=O)NC2=O)c1 [SB-341556]
4. Cn1ccc2ncnc(Oc3ccc(NC(=O)Nc4cnn(C(C)(C)C)c4)c(Cl)c3)c21

Solution:
1: 0; 2: 0; 3: 0; 4: 7

----------
# Test system: ACVR1B
# EXPERIMENTAL CONTEXT: concentration: 1 μM,replicates: in singlicate; n = 1
OUTCOME MEASURE: %Inh
Please answer in the form of a number followed by its unit of measurement.

Required: %Inh, one value per compound below.
1. CCNCC(Cc1ccccc1)NC(=O)c1cc(Br)c(-c2ccnc3[nH]ccc23)s1.Cl.Cl (centres unmarked) [GSK1383280]
2. C[C@@H]1CNc2c(sc3ccc4nc(-c5ccncc5)ccc4c23)C(=O)N1
3. CN(c1cccc(CNc2nc(Nc3ccc4c(c3)CC(=O)N4)ncc2C(F)(F)F)c1)S(C)(=O)=O
4. C[C@@H](Oc1cc(-n2cnc3cc(-c4cnn(C)c4)ccc32)sc1C(N)=O)c1ccccc1Cl [GSK580432]
5. CC(=O)Nc1ccc(-c2cc3ncnc(SCC(=O)O)c3s2)cc1

Solution:
1. 0%
2. 0%
3. 0%
4. 0%
5. 2%

----------
# Test system: NLK
# EXPERIMENTAL CONTEXT: concentration: 1 μM,replicates: in singlicate; n = 1
Criterion: %Inh strictly less than 20%. Met: 1. Not met: 0.

Example results:
1) CN1CCN(CCCNc2nccc(-c3c(-c4ccc(F)cc4)nn4cc(C(N)=O)ccc34)n2)CC1 : 0
2) Cn1ccc2ncnc(Oc3ccc(NC(=O)Nc4cccc(C(F)(F)F)c4)c(F)c3)c21 : 1
3) COc1cc2c(Nc3ccc(NC(=O)c4ccccc4)cc3)ncnc2cc1OCCCN1CCOCC1 : 1
4) Nc1nccc(-c2ccc3c(N)n[nH]c3c2)n1 : 0
5) C[C@@H]1CNc2c(sc3ccc4nc(-c5ccncc5)ccc4c23)C(=O)N1 : 1
6) C[C@@H](Oc1cc(-n2cnc3ccc(-c4ccncc4)cc32)sc1C(N)=O)c1ccccc1Cl : 0
7) CNC(=O)c1ccccc1Nc1nc(Nc2cccc(CS(C)(=O)=O)c2)ncc1C.O=CO : 0
8) CCn1c(-c2nonc2N)nc2cncc(Br)c21 : 0

Consider the additional compound presented here.
Problem: Is %Inh of Cl.Cl.NC[C@H](CC1CCCCC1)NC(=O)c1ccc(-c2ccnc3[nH]ccc23)s1 strictly below 20%?
Solution: 1

----------
# Tested on: VEGFR2
# Construct: gene KDR
# EXPERIMENTAL CONTEXT: concentration: 1 μM,replicates: in singlicate; n = 1
Would you kindly list %Inh for each of these molecules?
Give bare numbers, in %.

Illustrative cases are given below, each with its answer.
1) CCCC(=O)Nc1n[nH]c2ncccc12 : 0
2) COc1cc2nccc(Nc3ccc(Oc4ccccc4)cc3)c2cc1OC.Cl : 23
3) Cc1n[nH]c2cc(Nc3ccnc(Nc4cccc(CN5CCOCC5)c4)n3)ccc12 : 45
4) C[C@@H]1CNc2c(sc3ccc4nc(-c5ccncc5)ccc4c23)C(=O)N1 : 13
5) Cc1cccc(-c2nc(Nc3ccncc3)c3sccc3n2)n1 : 35
6) CCn1c(-c2nonc2N)nc2cncc(Br)c21 : 37
7) O=C1NCCc2[nH]c(-c3ccncc3)cc21 : 25
8) N#Cc1cccc(C(=O)NC2CCN(c3ccnc(Nc4ccc(F)cc4)n3)C2)c1 (stereo not shown) : 0

Required: %Inh, one value per molecule below.
1. CN(c1ccc2c(c1)nc(NCc1ccc(F)cc1)n2C)c1ccnc(Nc2ccc(CS(C)(=O)=O)cc2)n1.Cl
2. Cn1ccc2ncnc(Oc3ccc(NC(=O)Nc4cnn(C(C)(C)C)c4)c(Cl)c3)c21
3. CS(=O)(=O)Nc1ccc(-c2ccnc3[nH]ccc23)cc1
4. Cn1ccc2ncnc(Oc3ccc(NC(=O)Nc4cc(C(C)(C)C)on4)c(Cl)c3)c21

Solution:
98.3
99.1
48
97.5

Required: %Inh, one value per molecule below.
1. C[C@@H](Oc1cc(-n2cnc3cc(-c4ccncc4)ccc32)sc1C(N)=O)c1ccccc1Cl
2. O=C(NOCC1CC1)c1cc(Br)c(F)c(F)c1Nc1ccc(I)cc1Cl
3. Nc1nccc(-c2ccc3c(N)n[nH]c3c2)n1
4. Cc1nnc(-c2ccc3occ(-c4ccc(S(C)=O)cc4)c3n2)o1 (stereo not shown)

Solution:
40
0
0
0

Required: %Inh, one value per molecule below.
1. CC(C)S(=O)(=O)N1CCN(Cc2ccc3c(c2)nc(NC(=O)c2ccsc2)n3C[C@H](O)c2ccccc2)CC1
2. Cc1ccc(CC(=O)N2CCc3cc(-c4cn(C)c5ncnc(N)c45)ccc32)cc1
3. CCn1c(-c2nonc2N)nc2cncc(CNC3CCNCC3)c21.Cl

Solution:
[3, 0, 0]
